Reference source: PubChem BioAssay

- TEST: small-molecule microarray binders of probe aXIP, primary screen, biochemical, NeuroSMM set, 635/667 nm fluorescence (AID 1119);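 further: probe is the protein aXip251-270 applied at 1 µg/mL to compound-printed slides; binding of probe to printed compounds measured as 667 nm fluorescence plus signal to noise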
- SETTINGS: higher = more signal, called active from +8 up or from −8 down
The threshold is inclusive: composite Z-score of exactly -0.02 counts as satisfied; values below receive not satisfied.

These recorded examples may help you get a feel for the data.
COMPOUND	CLASSIFICATION
O=C1N(Cc2ccccc2)c2ccccc2C[C@@]12N=C(c1ccc(OCCCO)cc1)O[C@H]2c1ccccc1	not satisfied
C=C(C(=O)CC[C@@H](OC(=O)c1ccccc1-c1ccccc1C(=O)O)c1ccc(OCCO)cc1)C(C)C	not satisfied
CC[C@H]1C2=C3C(CC[C@H]4C(OCc5ccc(F)cc5C(F)(F)F)OC[C@](C)([C@@H]34)N(C(=O)OC(C)(C)C)C2)C(COC(C)=O)C1COC(C)=O (some centres not stated)	not satisfied

Check if composite Z-score >= -0.02 (inclusive). Item: COc1ccc([Si](C)(C)[C@H]2[C@H](CC(=O)N3CCC[C@H]3CO)O[C@@]3(C(=O)N(C)c4c(Br)cc(C)cc43)[C@@H]2C)cc1 satisfied

Check if composite Z-score >= -0.02 (inclusive). Item: O=C(NCCN1CCOCC1)[C@@H]1c2ccccc2C(=O)N(CC23CC4CC(CC(C4)C2)C3)[C@H]1c1ccc(CO)cc1 satisfied

Check if composite Z-score >= -0.02 (inclusive). Item: COC(=O)C1=CC(c2ccc(CO)cc2)=CC(C2CC2)N(Cc2cc3c(cc2Br)OCO3)C=C1C(=O)OC (configuration not stated) satisfied

Check if composite Z-score >= -0.02 (inclusive). Item: Cc1ccc(S(=O)(=O)N2[C@@H](c3ccccc3)C(C(=O)O)=CC[C@H]2c2ccc(F)cc2)cc1 satisfied

* * *

// values below are reported z-score
- TEST: basal RPMI8226 mitochondrial membrane potential changes, profiling panel, cell-based, JC-1 fluorescence, 24 h, 100 nL compound (AID 1169); further: test concentration not given here
- SETTINGS: RPMI8226 myeloma, JC-1 mitochondrial potential fluorescence, higher = more signal
Lab note: record the figure alone, no unit after it.

The cases that follow already have their z-score on record.
MOLECULE	z-score
CC(C)N1C(=O)[C@@]2(Cc3ccccc31)c1ccccc1C(=O)N(Cc1ccccc1C(F)(F)F)[C@H]2c1ccc(CO)cc1	0.0301
O=C1C2C=CC(C(O)c3ccccn3)N(Nc3ccc([N+](=O)[O-])cc3)C2C(=O)N1c1ccccc1 (configuration not stated)	-0.187
COc1c(C)cc(-c2cc3c(c(CCc4ccccc4)n2)[Si](C(C)C)(C(C)C)O[C@H]3c2ccccc2)cc1C	-1.04
C[C@@]1([C@@H](NS(=O)(=O)c2cccc3cccnc23)c2ccc(-c3ccccc3)cc2)C[C@H]1C1CCCCC1	0.698
[N-]=[N+]=Nc1ccccc1C[C@@]1(C(=O)NCc2ccccc2)N=C(c2ccc(OCCCO)cc2)O[C@@H]1c1ccccc1	-1.3
COC(=O)[C@@]1(Cc2ccc(F)cc2)[C@@H]2C(=CC(=O)[C@H]2CC(=O)C(=O)N2CCCC2)CN1C(=O)c1ccccc1	-0.686
COCCOC(=O)N1C(=O)[C@@]2(c3cc(C#CCNC(N)=O)ccc31)[C@H](C(N)=O)[C@H]1C(=O)O[C@H](c3ccccc3)[C@H](c3ccccc3)N1[C@@H]2c1ccc(O)cc1	-0.883
[N-]=[N+]=Nc1ccccc1C[C@]1(C(N)=O)COC(c2ccc(OCCCO)cc2)=N1	-0.964

Could you tell me which z-score is on file for O=C1C2C=CC(C(O)C3CC=CCC3)N(Nc3ccc([N+](=O)[O-])cc3)C2C(=O)N1c1ccccc1 (configuration not stated) ? -0.374

Could you tell me which z-score is on file for COCCCNC(=O)[C@@]1(c2ccc([N+](=O)[O-])cc2)CC(=O)N(C2CCCCC2)[C@@H]1c1ccc(CO)cc1I ? 0.496

Could you tell me which z-score is on file for C=CCNC(=O)[C@H]1[C@@H]2C(=O)O[C@@H](c3ccccc3)[C@@H](c3ccccc3)N2[C@@H](c2ccc(O)cc2)[C@]12C(=O)Nc1ccccc12 ? 0.105

Could you tell me which z-score is on file for COc1ccc(C(=O)Nc2ccc(CN3C(=O)[C@]4(O[C@H](CC(=O)N(CCO)Cc5ccccc5)[C@@H]([Si](C)(C)c5ccc(OC)cc5)[C@@H]4C)c4ccccc43)cc2)cc1 ? -1.02

Could you tell me which z-score is on file for COC(=O)C[C@H]1O[C@]2(C(=O)N(C)c3ccccc32)[C@@H](C)[C@@H]1[Si](C)(C)c1ccccc1 ? -0.0109

Could you tell me which z-score is on file for O=C(NCCN1CCOCC1)[C@@H]1c2ccccc2C(=O)N(CC23CC4CC(CC(C4)C2)C3)[C@H]1c1ccc(CO)cc1 ? 0.434
